details: in DMF, 320.4 K
MEASURE NAME: solubility (mole fraction)

Check the records and state solubility (mole fraction) for NC(=O)CS(=O)C(c1ccccc1)c1ccccc1 (stereo unspecified)
0.108

* * *

details: in ethyl acetate, 291.9 K
MEASURE NAME: solubility (mole fraction)
One number for each entry.

Please give the documented solubility (mole fraction) of NC(=O)CS(=O)C(c1ccccc1)c1ccccc1 (stereo unspecified)
0.000709

* * *

conditions: in ethanol, 304.2 K
MEASURE NAME: solubility (mole fraction)

Report solubility (mole fraction), nothing else, for this compound: NC(=O)CS(=O)C(c1ccccc1)c1ccccc1 (stereo unspecified)
0.00167

* * *

settings: in acetonitrile, 297.9 K
MEASURE NAME: solubility (mole fraction)

# return recorded solubility (mole fraction) for entry NC(=O)CS(=O)C(c1ccccc1)c1ccccc1 (stereo unspecified)
0.00132
